Sourced from patent US20210130436A1

target: T1, CD28 on Jurkat/IL2 reporter cells (human, UniProt P10747 19-220); test: flow cytometry, Jurkat cells (CD28)
T1 construct: whole, on cells; Endogenous CD28 of Jurkat cells; also called Jurkats (CD28)
assay.metric: MFI at 33.3 nM (MFI)

I. variant CD80 IgV-Fc H18Y/E35D/M47L/A71G/A91S (Fc fusion, not shown: a dimerising Fc or GST) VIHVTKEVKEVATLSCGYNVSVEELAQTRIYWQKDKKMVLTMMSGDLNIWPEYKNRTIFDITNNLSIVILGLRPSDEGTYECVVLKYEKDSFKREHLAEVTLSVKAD
II. variant CD80 IgV-Fc E35D/M47I/N48K/I61F (Fc fusion, not shown: a dimerising Fc or GST) VIHVTKEVKEVATLSCGHNVSVEELAQTRIYWQKDKKMVLTMMSGDIKIWPEYKNRTIFDFTNNLSIVILALRPSDEGTYECVVLKYEKDAFKREHLAEVTLSVKAD
Form field 'greater MFI at 33.3 nM' accepts I or II ; which applies? Answer format: the label of the selected item.
II
(II: 816 MFI, I: 528 MFI)
